Target: CCK receptor (pancreas) (Rattus norvegicus, UniProt P30551)
Construct: The whole pancreas was dissected free of fat tissue and was homogenized; from tissue; host or cells: whole pancreas of male Sprague-Dawley rats, homogenate membranes
Sequence (P30551 1-444): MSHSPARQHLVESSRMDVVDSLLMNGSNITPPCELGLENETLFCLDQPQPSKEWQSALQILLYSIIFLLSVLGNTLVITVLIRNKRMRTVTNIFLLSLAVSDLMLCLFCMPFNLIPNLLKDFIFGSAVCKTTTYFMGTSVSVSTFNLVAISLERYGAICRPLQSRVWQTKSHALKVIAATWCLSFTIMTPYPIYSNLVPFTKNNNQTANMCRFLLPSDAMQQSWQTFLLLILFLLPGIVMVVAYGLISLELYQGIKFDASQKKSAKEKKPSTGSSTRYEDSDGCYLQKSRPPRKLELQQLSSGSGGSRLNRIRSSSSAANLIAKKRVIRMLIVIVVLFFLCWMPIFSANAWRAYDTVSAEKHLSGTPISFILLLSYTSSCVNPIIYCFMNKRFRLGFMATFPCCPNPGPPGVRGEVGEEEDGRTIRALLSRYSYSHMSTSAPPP
Assay: CCK Receptor Binding (Pancreas), inhibition of specific 125I-CCK-8 binding
Design: species or system rat (male Sprague-Dawley)
Settings: rat pancreas membranes; 50 pM 125I-CCK-8; 25° C., 2 hours; pH 6.5; read-out: IC50 125I-CCK Pancreas
READOUT: IC50 (nM)

>  <COMPOUND>
CN1C(=O)[C@H](NC(=O)Nc2cccc(CNc3nnn[nH]3)c2)N=C(C2CCCCC2)c2ccccc21 [Example 6]

>  <NUMERIC RESULT>
153

$$$$

1 = CN1C(=O)[C@H](NC(=O)Nc2cccc(Nc3nnn[nH]3)c2)N=C(C2CCCCC2)c2ccccc21 [Example 5]
2 = CN1C(=O)C(NC(=O)Nc2cccc(N(C)c3nnn[nH]3)c2)N=C(C2CCCCC2)c2ccccc21 (racemic) [Example 3]
3 = Cc1ccc(NC(=O)N[C@@H]2N=C(C3CCCCC3)c3ccccc3N(C)C2=O)cc1Nc1nnn[nH]1 [Example 10]
4 = CN1C(=O)C(NC(=O)Nc2cccc(CNc3ncc[nH]3)c2)N=C(C2CCCCCC2)c2ccccc21 (racemic) [Example 20]
Q: Ranking field: IC50; order: falling. Order the labels as requested and give them as your answer.
Result: 3, 1, 4, 2

====

target: CCK receptor (pancreas) (Rattus norvegicus, UniProt P30551); construct: The whole pancreas was dissected free of fat tissue and was homogenized; from tissue; host or cells: whole pancreas of male Sprague-Dawley rats, homogenate membranes; assay: CCK Receptor Binding (Pancreas), inhibition of specific 125I-CCK-8 binding; design: species or system rat (male Sprague-Dawley); details: rat pancreas membranes; 50 pM 125I-CCK-8; 25° C., 2 hours; pH 6.5; read-out: IC50 125I-CCK Pancreas
READOUT: IC50 (nM)

Solved entries (count: 2):
>  <MOLECULE>
CN1C(=O)[C@H](NC(=O)Nc2cccc(N(C)c3nnn[nH]3)c2)N=C(C2CCCCC2)c2ccccc21 [Example 4]

>  <READOUT>
IC50

>  <UNIT STRING>
nM

>  <NUMERIC RESULT>
400

$$$$
>  <MOLECULE>
Cc1ccc(NC(=O)N[C@@H]2N=C(C3CCCCC3)c3ccccc3N(C)C2=O)cc1N(C)c1nn[nH]n1 [Example 11]

>  <READOUT>
IC50

>  <UNIT STRING>
nM

>  <NUMERIC RESULT>
600

$$$$

P = CCCN1C(=O)C(NC(=O)Nc2cccc(CNc3ncc[nH]3)c2)N=C(C2CCCCC2)c2ccccc21 (racemic) [Example 18]
Q = CCCN1C(=O)C(NC(=O)Nc2cccc(Nc3ncc[nH]3)c2)N=C(C2CCCCC2)c2ccccc21 (racemic) [Example 19]
R = CN1C(=O)C(NC(=O)Nc2cccc(Nc3nnn[nH]3)c2)N=C(C2CCCCC2)c2ccccc21 (racemic) [Example 2]
Q: Ranking field: IC50; order: falling. Order the labels as requested and give them as your answer.
Result: P, R, Q
(P: 109 nM, R: 6.5 nM, Q: 1.33 nM)

Just for reference, patent US5681833A is where these values come from.
